Origin of the recorded values: PubChem BioAssay (NCI)

- System: KM12 colon
- protocol description: NCI-60 one-dose screen, 48 h
- cond: 10 µM unless noted
- Protocol: Growth inhibition of the KM12 human tumor cell line is measured as a screen for anti-cancer activity. Cells are grown in 96 well plates and exposed to the test compound for 48 hours. Compounds are tested at a single concentration, which is 10^-5 M for most compounds. The reported endpoint is percent growth (GI% or GIPRCNT), where numbers from 0 - 100% represent growth inhibition, and numbers from -100% - 0 represent cell death. For example, a value of 40 represents 60% growth inhibition. […]
This is part of a sample that, as a whole, favours compounds with a hit. Of some 83,000 tested, about 20% had one in any assay. Activity calls are given as the source filed them. How the source made its calls: active means growth percent below 10; inactive means the rest.
Classes to choose from: active, inactive

Sample answers from the record:
CCCCC[C@H]1CC=C2C(=O)C=C[C@@H]2CC=CCCCC(=O)O[C@@H](CCCCC)CC=C2C(=O)C=C[C@@H]2CC=CCCCC(=O)O[C@@H](CCCCC)CC=C2C(=O)C=C[C@@H]2CC=CCCCC(=O)O1 ... active
O=C1c2cccc3cccc(c23)C(=O)N1CC#Cc1ccc2c3c(cccc13)C(=O)N(CCO)C2=O ... inactive
Cc1ccc(/C=C(\C#N)c2cc3ccccc3n2C)cc1 ... inactive
O=C(O)c1cccc2c1C(=O)N(c1ccc3c(c1)Cc1ccccc1-3)C2=O ... inactive
CCCNc1nc(N(C)O)nc(N(C)O)n1 ... inactive
CC(C)(C)c1cc(-n2c(-c3ccc(Cl)cc3)nc3cc(C(=O)Nc4ccc(Cl)cc4)ccc32)n[nH]1 ... inactive
COc1ccc2nc(-c3cc(-c4cc(OC)c(OC)c(OC)c4)n[nH]3)[nH]c2c1 ... active
Cc1ccc(C)c2c1CCC2C(C)C (centres undefined) ... inactive

Lab note: next molecule to report on.
[Q] Could you please tell me the result logged for Cc1ccc2c(c1)c1nc3cc(C)c(C)cc3nc1n2CCN(C)C in this assay?
[A] inactive

* * *

- System: NCI/ADR-RES ovarian
- protocol description: NCI-60 one-dose screen, 48 h (100 = growth as untreated, 0 = no growth, -100 = all killed)
- cond: 10 µM unless noted
The panel holds about 83,000 compounds, 20% with a hit somewhere; the sample as a whole holds those more often.
outcome measure: growth (%)
Numbers only here, please. The scale is %.

Field: example entries. Status: answers known.
CN1CCN(c2nc(-c3cccc4ccccc34)nc3sc4c(c23)CCCCCC4)CC1 ... 87.4
C=C(C)[C@@H]1CC[C@]2(C(=O)N3CCN(CC)CC3)CC[C@]3(C)[C@H](CC[C@@H]4[C@@](C)(CCC(=O)N5CCN(CC)CC5)[C@H](C(=C)C)CC[C@]43C)[C@@H]12 ... 67.6
Cc1cc(Cl)nc(N(CCNc2ccnc3cc(Cl)ccc23)Cc2ccco2)n1 ... 44.5

[Q] What measured growth goes with CC1(C)C=CC[C@]2(C)[C@H]3CC[C@@H]4[C@H]5[C@H](C(=O)/C=C/c6cccnc6)CC[C@]5(CO)CC[C@@]4(C)[C@]3(C)CC[C@@H]12 ?
[A] -32.2

* * *

The entries below are paired with their reported growth.
- Test system: NCI-H522 lung
- protocol description: NCI-60 one-dose screen, 48 h (100 = growth as untreated, 0 = no growth, -100 = all killed)
- cond: 10 µM unless noted
The panel holds about 83,000 compounds, 20% with a hit somewhere; the sample as a whole holds those more often.
Numbers only here, please. The scale is %.

CCCCCCCC(=O)SCC/C=C/[C@@H]1CC(=O)NCc2cccc(n2)CN(Cc2ccc3ccccc3c2)CC(=O)N[C@@H](C(C)C)C(=O)O1 ... 66.1

[Q] What measured growth goes with Cn1nc(-c2ccccc2)c2c(-c3ccccc3)onc2c1=O ?
[A] 10.6

[Q] What measured growth goes with CC(C)(C)CC(C)(C)c1ccc(OCCOCC[N+](C)(C)CC(=O)[O-])cc1 ?
[A] 103

[Q] What measured growth goes with COc1ccc(-n2c(/C=C/c3ccc(O)c(OC)c3)cc(/C=C/c3ccc(O)c(OC)c3)nc2=O)cc1 ?
[A] 29.3

[Q] What measured growth goes with COC(=O)[C@]12CC[C@@H](C)[C@H](C)[C@@H]1C1=CC[C@@H]3[C@@](C)(CC#N)C4=C(C[C@@]3(C)[C@]1(C)CC2)OC[C@]4(C)C=O ?
[A] -6.43

[Q] What measured growth goes with COc1cccc2c1C(=O)c1c(O)c3c(c(O)c1C2=O)C[C@@](O)(C(=O)CO)C[C@@H]3OC1C[C@H](N)[C@H](O)[C@H](C)O1 (stereo partly drawn) ?
[A] -61.1

[Q] What measured growth goes with COc1ccc2c(c1)C/C(=C\c1cc(-c3ccc4c(c3)OCO4)n[nH]1)C2=O ?
[A] 105

[Q] What measured growth goes with Oc1ccccc1/C=N\NC(=S)Nc1ccc(F)cc1 ?
[A] 21.4

* * *

- Test system: HOP-62 NSCLC
- protocol description: NCI-60 one-dose screen, 48 h
- cond: 10 µM unless noted
Compounds without any hit were thinned out: in the full panel of roughly 83,000, 20% have a hit. Active and inactive are the calls of the source. How the source made its calls: active means growth percent below 10; inactive means the rest.
Classes to choose from: 1 (active), 0 (inactive)

Sample answers from the record:
O=S(=O)(NCCNc1cc(-c2cn(-c3ccccc3)nc2-c2cccc(O)c2)ccn1)c1ccccc1 ... 0
CC(=O)n1c(/C(C#N)=C/c2ccc(N(C)C)cc2)cc2ccccc21 ... 0
COC(=O)CNc1nc(N(C)O)nc(N(C)O)n1 ... 0
COc1cc(-c2cc3ncccc3c3[nH]c(=O)c4cccnc4c23)cc(OC)c1OC ... 0
O=S(=O)(NCCNc1cc(-c2cn(-c3ccccc3)nc2-c2cccc(O)c2)ccn1)c1ccc(Br)cc1 ... 0

[Q] Could you please tell me the result logged for C=C(C)[C@@H]1CC[C@]2(C=O)CC[C@]3(C)[C@H](CC[C@@H]4[C@@]5(C)C/C(=C/c6cccnc6)C(=O)C(C)(C)[C@@H]5CC[C@]43C)[C@@H]12 in this assay?
[A] 0

[Q] Could you please tell me the result logged for CCCCC[C@H]1CC=C2C(=O)C=C[C@@H]2CC=CCCCC(=O)O[C@@H](CCCCC)CC=C2C(=O)C=C[C@@H]2CC=CCCCC(=O)O[C@@H](CCCCC)CC=C2C(=O)C=C[C@@H]2CC=CCCCC(=O)O1 in this assay?
[A] 1

[Q] Could you please tell me the result logged for Cc1cc(C)n(Cc2cc(C(C)(C)C)cc(C(C)(C)C)c2)c(=O)c1C#N in this assay?
[A] 0

[Q] Could you please tell me the result logged for CCCCC[C@H]1C/C=C2/C(=O)C=C[C@@H]2C/C=C\CCCC(=O)O[C@@H](CCCCC)C/C=C2/C(=O)C=C[C@@H]2C/C=C\CCCC(=O)O1 in this assay?
[A] 1

[Q] Could you please tell me the result logged for O=C1NC(c2ccc(Cl)c(Cl)c2)=C/C1=C\c1ccccc1 in this assay?
[A] 0

[Q] Could you please tell me the result logged for OCCNc1nc(Nc2ccc(Cl)c(Cl)c2)nc2ccccc12 in this assay?
[A] 0

[Q] Could you please tell me the result logged for Cn1cc(-c2csc(-c3cn(C(=O)OC(C)(C)C)c4ccccc34)n2)c2cccnc21 in this assay?
[A] 0

[Q] Could you please tell me the result logged for COc1ccc(/C=C/C(=O)NCCO)cc1 in this assay?
[A] 0

[Q] Could you please tell me the result logged for Cc1ccc(-c2ccc(Nc3ccccc3)nn2)cc1S(N)(=O)=O in this assay?
[A] 0

[Q] Could you please tell me the result logged for Cc1cc(N2CCOCC2)nc(N(CCCNc2ccnc3cc(Cl)ccc23)Cc2ccco2)n1 in this assay?
[A] 0

[Q] Could you please tell me the result logged for COc1cc(-c2cc3cc(O)ccc3oc2=O)cc(OC)c1OC in this assay?
[A] 0

[Q] Could you please tell me the result logged for NC1=C(C/C(N)=N\O)C(c2ccccc2Cl)c2c(ccc3ccccc23)O1 (centres undefined) in this assay?
[A] 0

[Q] Could you please tell me the result logged for NNC(=O)c1nc2ccccc2[nH]1 in this assay?
[A] 0

[Q] Could you please tell me the result logged for Cn1cc(-c2nc(-c3c[nH]c4ncccc34)cs2)c2cc(Cl)ccc21 in this assay?
[A] 0

* * *

The entries below are paired with their reported growth.
- Tested on: SK-MEL-5 melanoma
- protocol description: NCI-60 one-dose screen, 48 h (100 = growth as untreated, 0 = no growth, -100 = all killed)
- cond: 10 µM unless noted
About 83,000 compounds went through this panel and 20% of them were active in at least one assay; those are over-represented in the sample as a whole.
Numbers only here, please. The scale is %.

Field: example entries. Status: answers known.
COC(c1ccccc1)(c1ccccc1)c1ccccc1 ... 103
CCOC(=O)C/C(=C\c1ccccc1)C(C)=O ... 106
NC(=O)NCC1CCCCC1 ... 109

Then this molecule:
[Q] What measured growth goes with Fc1ccc(Nc2nnc(-c3ccc(Cl)cc3)o2)cc1 ?
[A] 99.8
